# Target Under Test: T1, recombinant human heat shock cognate 71 kDa protein (Hsc70) (human, UniProt P11142 1-646, limits assumed)
# T1 construct: also called rhHsc70; human Hsc70
# T1 sequence (P11142 whole entry): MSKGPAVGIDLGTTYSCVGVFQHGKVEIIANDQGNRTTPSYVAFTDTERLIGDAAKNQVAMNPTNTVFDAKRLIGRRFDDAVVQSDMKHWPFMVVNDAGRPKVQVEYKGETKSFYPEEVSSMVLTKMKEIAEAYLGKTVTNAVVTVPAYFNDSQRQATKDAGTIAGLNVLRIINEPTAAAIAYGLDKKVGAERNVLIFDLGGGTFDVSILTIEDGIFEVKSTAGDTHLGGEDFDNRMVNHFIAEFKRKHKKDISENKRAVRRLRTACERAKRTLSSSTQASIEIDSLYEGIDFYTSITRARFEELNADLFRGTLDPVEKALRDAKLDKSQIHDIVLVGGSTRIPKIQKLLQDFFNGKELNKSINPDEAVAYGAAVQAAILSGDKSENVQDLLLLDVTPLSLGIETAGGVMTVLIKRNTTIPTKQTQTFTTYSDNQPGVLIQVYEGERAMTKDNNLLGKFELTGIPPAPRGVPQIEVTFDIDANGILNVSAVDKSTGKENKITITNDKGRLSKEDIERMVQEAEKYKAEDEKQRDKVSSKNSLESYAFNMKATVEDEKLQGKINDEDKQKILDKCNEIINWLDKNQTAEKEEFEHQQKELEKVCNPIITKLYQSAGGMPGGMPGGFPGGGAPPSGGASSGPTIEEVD
# Experiment Summary: SEC of peptide-Hsc70 mixture; peptide:Hsc70 molar ratio 0.25:1
Measure Name: Percent complexation with Hsc70 (%)

FFRKNWLKLKW (Synthetic peptide) [PEP055] = 24.1
FFRKNWLKLRW (Synthetic peptide) [PEP057] = 24.9
FFRKNWLLLTW (Synthetic peptide) [PEP003] = 26.8
FRNWLRLTW (Synthetic peptide) [PEP028] = 24
